Sourced from patent US12624019B2

- tested.on: IRAK4 kinase protein in THP-1 cells (Homo sapiens)
- Construct: endogenous in cells; host or cells: THP-1 cells
- Sequence (Q9NWZ3 1-460): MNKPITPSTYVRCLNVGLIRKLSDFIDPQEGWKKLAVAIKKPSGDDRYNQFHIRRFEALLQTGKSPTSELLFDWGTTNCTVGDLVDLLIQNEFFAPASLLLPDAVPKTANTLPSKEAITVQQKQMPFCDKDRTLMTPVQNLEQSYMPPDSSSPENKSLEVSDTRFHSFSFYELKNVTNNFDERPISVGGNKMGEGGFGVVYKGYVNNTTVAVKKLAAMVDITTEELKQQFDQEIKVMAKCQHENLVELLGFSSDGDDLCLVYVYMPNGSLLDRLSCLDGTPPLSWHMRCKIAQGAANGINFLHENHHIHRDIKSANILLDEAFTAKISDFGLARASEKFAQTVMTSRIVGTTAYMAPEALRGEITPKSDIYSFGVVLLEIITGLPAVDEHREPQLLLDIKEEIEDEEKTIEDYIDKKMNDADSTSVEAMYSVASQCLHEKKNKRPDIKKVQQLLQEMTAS
- experiment.description: Degradation of IRAK4 in THP-1 cells by Western Blot
- Assay type: cell-based
- stated.conditions: IRAK4 degradation in THP-1 cells, 24 hours; read-out: WB Dmax
Parameter: Dmax. Scope: all listed entries.

{"columns": ["compound", "Dmax"],
 "data": [
  ["COc1cc2nn(C3CCN(CCOCCOc4ccc5c(c4)C(=O)N(C4CCC(=O)NC4=O)C5=O)CC3)cc2cc1NC(=O)c1cccc(C(F)(F)F)n1 (stereo not drawn) [Control group 1, reference compound]", "73.9%"],
  ["CC(C)(O)c1cc2nn(C3CCN(CCC4CCC5(CC4)CCN(c4ccc6c(c4)C(=O)N(C4CCC(=O)NC4=O)C6=O)CC5)CC3)cc2cc1NC(=O)c1cccc(C(F)(F)F)n1 (stereo not drawn) [Example 12]", "99.8%"],
  ["COc1cc2nn(C3CCN(CCC4CCN(c5ccc6c(c5)C(=O)N(C5CCC(=O)NC5=O)C6=O)CC4)CC3)cc2cc1NC(=O)c1cccc(C(F)(F)F)n1 (stereo not drawn) [Example 1]", "98.8%"],
  ["COc1cc2nn(C3CCN(CCN4CCN(c5ccc6c(c5)C(=O)N(C5CCC(=O)NC5=O)C6=O)CC4)CC3)cc2cc1NC(=O)c1cccc(C(F)(F)F)n1 (stereo not drawn) [Example 3]", "97.7%"],
  ["COc1cc2nn(C3CCN(CC4CCN(CCOc5ccc6c(c5)C(=O)N(C5CCC(=O)NC5=O)C6=O)CC4)CC3)cc2cc1NC(=O)c1cccc(C(F)(F)F)n1 (stereo not drawn) [Control group 2, reference compound]", "85.1%"],
  ["CC(C)(O)c1cc2nn(C3CCN(CCC4CCN(c5ccc6c(c5)C(=O)N(C5CCC(=O)NC5=O)C6=O)CC4)CC3)cc2cc1NC(=O)c1cccc(C(F)(F)F)n1 (stereo not drawn) [Example 5]", "92.4%"]
]}

====

- tested.on: IRAK4 kinase protein in THP-1 cells (Homo sapiens, UniProt Q9NWZ3)
- Construct: endogenous in cells; host or cells: THP-1 cells
- Sequence (Q9NWZ3 1-460): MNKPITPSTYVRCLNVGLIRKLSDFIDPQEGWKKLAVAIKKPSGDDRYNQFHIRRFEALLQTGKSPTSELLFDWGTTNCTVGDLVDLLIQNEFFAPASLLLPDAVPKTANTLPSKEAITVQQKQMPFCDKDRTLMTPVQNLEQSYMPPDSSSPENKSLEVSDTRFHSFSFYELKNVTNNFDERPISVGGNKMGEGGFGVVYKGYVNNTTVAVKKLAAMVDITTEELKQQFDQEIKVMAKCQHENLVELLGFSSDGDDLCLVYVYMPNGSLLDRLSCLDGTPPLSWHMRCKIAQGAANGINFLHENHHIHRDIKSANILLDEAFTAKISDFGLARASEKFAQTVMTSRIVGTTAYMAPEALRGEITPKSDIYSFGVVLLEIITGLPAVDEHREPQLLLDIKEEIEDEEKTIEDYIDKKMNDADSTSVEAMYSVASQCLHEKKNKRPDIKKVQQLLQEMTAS
- experiment.description: Degradation of IRAK4 in THP-1 cells by Western Blot
- Assay type: cell-based
- stated.conditions: degradation percentage of IRAK4 in THP-1 cells, compound 1000 nM, 24 hours
So basically, if WB D(%) (1000 nM) comes in under 90% it's true, and if it's 90% or more it's false.

{"columns": ["compound", "group"],
 "data": [
  ["COc1cc2nn(C3CCN(CC4CCN(CCOc5ccc6c(c5)C(=O)N(C5CCC(=O)NC5=O)C6=O)CC4)CC3)cc2cc1NC(=O)c1cccc(C(F)(F)F)n1 (centres unmarked) [Control group 2, reference compound]", "true"],
  ["CC(C)(O)c1cc2nn(C3CCN(CC(C)(C)N4CCN(c5ccc6c(c5)C(=O)N(C5CCC(=O)NC5=O)C6=O)CC4)CC3)cc2cc1NC(=O)c1cccc(C(F)(F)F)n1 (centres unmarked)", "true"],
  ["COc1cc2nn(C3CCN(CC4CCN(c5ccc6c(c5)C(=O)N(C5CCC(=O)NC5=O)C6=O)CC4)CC3)cc2cc1NC(=O)c1cccc(C(F)(F)F)n1 (centres unmarked)", "true"],
  ["CC(C)(O)c1cc2nn(C3CCN(CCN4CCN(c5ccc6c(c5)C(=O)N(C5CCC(=O)NC5=O)C6=O)CC4)CC3)cc2cc1NC(=O)c1cccc(C(F)(F)F)n1 (centres unmarked)", "false"],
  ["COc1cc2nn(C3CCN(CCOCCOc4ccc5c(c4)C(=O)N(C4CCC(=O)NC4=O)C5=O)CC3)cc2cc1NC(=O)c1cccc(C(F)(F)F)n1 (centres unmarked) [Control group 1, reference compound]", "true"],
  ["CC(C)(O)c1cc2nn(C3CCN(CC4CCN(c5ccc6c(c5)C(=O)N(C5CCC(=O)NC5=O)C6=O)CC4)CC3)cc2cc1NC(=O)c1cccc(C(F)(F)F)n1 (centres unmarked)", "true"],
  ["COc1cc2nn(C3CCN(CCC4CCN(c5ccc6c(c5)C(=O)N(C5CCC(=O)NC5=O)C6=O)CC4)CC3)cc2cc1NC(=O)c1cccc(C(F)(F)F)n1 (centres unmarked)", "false"],
  ["COc1cc2nn(C3CCN(CCN4CCN(c5ccc6c(c5)C(=O)N(C5CCC(=O)NC5=O)C6=O)CC4)CC3)cc2cc1NC(=O)c1cccc(C(F)(F)F)n1 (centres unmarked)", "false"],
  ["CC(C)(O)c1cc2nn(C3CCN(CCCC4CCN(c5ccc6c(c5)C(=O)N(C5CCC(=O)NC5=O)C6=O)CC4)CC3)cc2cc1NC(=O)c1cccc(C(F)(F)F)n1 (centres unmarked)", "true"],
  ["CC(C)(O)c1cc2nn(C3CCN(CCC4CCC5(CC4)CCN(c4ccc6c(c4)C(=O)N(C4CCC(=O)NC4=O)C6=O)CC5)CC3)cc2cc1NC(=O)c1cccc(C(F)(F)F)n1 (centres unmarked)", "false"]
]}
